- Assay summary: Antagonist activity at quorum sensing system in Escherichia coli NM522 carrying Vibrio fischeri luxR and luxICDBE promoter region assessed as inhibition of 3-oxo-C6HSL induced bioluminescence production after 4 to 5 hrs by luminometer
Recorded IC50, one value per entry.
Your answer is read as µM, so omit the unit and give the number.

Sample answers from the record:
# Compound, Unit string, Value measured
records = [
    ("CCCCC1=C(Br)/C(=C/Br)OC1=O", "µM", 45),
    ("CCCC(O)C1=C/C(=C\\Br)OC1=O (configuration not stated)", "µM", 18),
]

// next item, IC50 requested
The recorded IC50 for entry C=C1C=C(C(O)CCCCC)C(=O)O1 (configuration not stated) equals 8
